Where do these numbers come from? They come from the supplement of paper PMC8253809.

Tested on: SUDIPGXIII (diffuse intrinsic pontine glioma line)
protocol.text: growth inhibition (% activity, log2 RLU normalised to DMSO / staurosporine); higher = more growth inhibition
recorded.conditions: 33 µM
assay.readout: growth inhibition (%)
Answers are plain numbers, in %.

Please review the following examples before continuing.
COc1cc(C)c(/C=C/C(C)=C/C=C/C(C)=C/C(=O)O)c(C)c1C: 1.6
CC(=O)S[C@@H]1CC2=CC(=O)CC[C@]2(C)[C@H]2CC[C@@]3(C)[C@@H](CC[C@@]34CCC(=O)O4)[C@H]12: 0.862

Give me growth inhibition for each of these molecules, listed below.
1. O=c1c(-c2ccc(O)cc2)coc2cc(O)cc(O)c12
2. NC(=O)c1cccnc1
3. N[C@@H]1CONC1=O
4. C[C@H](N)[C@H](O)c1cccc(O)c1
5. NC(=O)c1ncn([C@@H]2O[C@H](CO)[C@@H](O)[C@H]2O)n1

[-2.36, 0.194, 1.03, 1.04, 0.78]
